molecular target: Vascular endothelial growth factor receptor 2 (Homo sapiens); assay: Inhibition of VEGFR-2 kinase assessed as phosphorylated level of pGAT-biotin peptide preincubated for 5 to 10 mins before addition of substrate measured after 2 hrs by HTRF assay
List of IC50 values.

- Compound: "CS(=O)(=O)c1ccc(-c2nnc(-c3cccnc3NCC3COCCO3)[nH]2)cc1 (stereo not given)"
  IC50: "4.5 µM"
- Compound: "FC1(F)Oc2ccc(Nc3nnc(-c4cccnc4NCc4ccncc4)o3)cc2O1"
  IC50: "3.16 µM"
- Compound: "c1cncc(CCNc2ncccc2-c2nnc(Nc3ccc4c(c3)OCO4)o2)c1"
  IC50: "3.41 µM"
- Compound: "c1cnc(NCc2ccc3[nH]ncc3c2)c(-c2nnc(Nc3ccc4c(c3)OCCO4)o2)c1"
  IC50: "1.4 µM"
- Compound: "c1ccc(-c2nnc(Nc3ccc4c(c3)OCCO4)[nH]2)c(NCc2cnc[nH]2)c1"
  IC50: "4.6 µM"
- Compound: "c1cncc(CNc2ccccc2-c2nnc(Nc3ccc4c(c3)OCCO4)[nH]2)c1"
  IC50: "3.2 µM"

# IC50 lookup, item c1ccc(-c2nnc(Nc3ccc4c(c3)OCCO4)[nH]2)c(NCc2ccc3ncccc3c2)c1
> 10 µM

# IC50 lookup, item c1cnc(NCc2ccc3c(c2)OCO3)c(-c2nnc(Nc3ccc4c(c3)OCCO4)o2)c1
2.6 µM

Requested field: IC50. Item: c1cnc(NCCc2ccncc2)c(-c2nnc(Nc3ccc4c(c3)OCCO4)o2)c1
> 10 µM

Form field: reported IC50 of c1cncc(CNc2ncccc2-c2nnc(Nc3ccc4c(c3)OCO4)o2)c1
> 10 µM

----------
experiment: Toxicity in po dosed mouse; assay type: organism-based; details: in vivo
Parameter measured: MTD (mg/kg)
Enter your answer as a number in mg/kg; do not include the unit.

For the compound c1ccc(-c2nnc(Nc3ccc4c(c3)OCCO4)o2)c(NCc2ccncc2)c1 , what MTD is on record?
100

----------
biological target: Vascular endothelial growth factor receptor 2 (Homo sapiens, UniProt P35968); assay: Inhibition of VEGFR2 expressed HEK293 cells; assay type: cell-based
Sequence (P35968 whole entry): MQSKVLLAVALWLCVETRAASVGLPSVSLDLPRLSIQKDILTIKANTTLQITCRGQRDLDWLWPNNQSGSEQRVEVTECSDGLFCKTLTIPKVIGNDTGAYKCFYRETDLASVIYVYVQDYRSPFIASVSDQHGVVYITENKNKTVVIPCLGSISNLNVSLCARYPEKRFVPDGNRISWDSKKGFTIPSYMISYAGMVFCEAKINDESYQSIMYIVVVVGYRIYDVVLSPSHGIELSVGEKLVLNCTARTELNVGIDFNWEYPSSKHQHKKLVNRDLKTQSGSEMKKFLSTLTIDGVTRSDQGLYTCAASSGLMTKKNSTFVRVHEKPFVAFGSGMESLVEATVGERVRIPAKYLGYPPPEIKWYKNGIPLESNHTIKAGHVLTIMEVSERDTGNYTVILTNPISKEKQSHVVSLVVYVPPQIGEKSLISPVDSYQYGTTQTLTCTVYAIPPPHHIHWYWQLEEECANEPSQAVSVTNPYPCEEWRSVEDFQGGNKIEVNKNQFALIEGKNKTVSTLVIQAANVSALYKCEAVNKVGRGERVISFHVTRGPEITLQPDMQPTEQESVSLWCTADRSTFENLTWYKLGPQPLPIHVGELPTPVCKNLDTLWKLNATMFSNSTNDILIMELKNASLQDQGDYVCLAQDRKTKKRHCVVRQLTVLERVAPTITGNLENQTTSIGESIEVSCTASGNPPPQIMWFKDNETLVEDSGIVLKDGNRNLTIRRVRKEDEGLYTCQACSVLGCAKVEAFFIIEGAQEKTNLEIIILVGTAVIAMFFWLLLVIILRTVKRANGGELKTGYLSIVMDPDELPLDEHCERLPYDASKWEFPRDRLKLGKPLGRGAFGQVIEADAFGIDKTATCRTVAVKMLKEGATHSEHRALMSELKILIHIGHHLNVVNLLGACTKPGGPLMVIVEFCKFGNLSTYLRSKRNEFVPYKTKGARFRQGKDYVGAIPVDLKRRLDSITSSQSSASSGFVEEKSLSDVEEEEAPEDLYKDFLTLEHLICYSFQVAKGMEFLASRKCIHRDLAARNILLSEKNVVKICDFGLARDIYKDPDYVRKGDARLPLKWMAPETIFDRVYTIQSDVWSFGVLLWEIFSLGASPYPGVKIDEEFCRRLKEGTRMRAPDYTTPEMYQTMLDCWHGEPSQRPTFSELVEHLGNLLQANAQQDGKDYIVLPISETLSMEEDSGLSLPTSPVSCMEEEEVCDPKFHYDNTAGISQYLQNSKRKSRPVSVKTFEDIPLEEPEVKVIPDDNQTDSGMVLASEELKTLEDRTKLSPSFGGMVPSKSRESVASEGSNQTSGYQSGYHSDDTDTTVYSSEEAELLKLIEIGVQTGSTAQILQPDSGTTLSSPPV
pIC50: −log10 of the molar value.
# pIC50 listing for each entry below

Some solved entries appear below for comparison.
- Test smiles: "c1cncc(CCNc2ncccc2-c2nnc(Nc3ccc4c(c3)OCCO4)o2)c1"
  pIC50: "< 5.00"
- Test smiles: "c1ccc(-c2nnc(Nc3ccc4c(c3)OCCO4)[nH]2)c(NCc2ccc3[nH]ncc3c2)c1"
  pIC50: 5.14
- Test smiles: "c1cnc(NCCc2ccncc2)c(-c2nnc(Nc3ccc4c(c3)OCO4)o2)c1"
  pIC50: "< 5.00"
- Test smiles: "c1cncc(CNc2ccccc2-c2nnc(Nc3ccc4c(c3)OCCO4)[nH]2)c1"
  pIC50: 5.55
- Test smiles: "FC1(F)Oc2ccc(Nc3nnc(-c4cccnc4NCc4ccncc4)o3)cc2O1"
  pIC50: "< 5.00"

Now look at this entry.
// returns reported pIC50 for input c1cncc(CNc2ncccc2-c2nnc(Nc3ccc4c(c3)OCCO4)o2)c1
< 5.00

----------
target: Vascular endothelial growth factor receptor 2 (Homo sapiens); assay: Inhibition of VEGFR-2 kinase assessed as phosphorylated level of pGAT-biotin peptide preincubated for 5 to 10 mins before addition of substrate measured after 2 hrs by HTRF assay
Parameter measured: log10 of IC50 (log10 of the value in nM)
# log10 transformed; quantity=IC50; unit=nM

- Test smiles: "c1cnc(NCc2ccc3ncccc3c2)c(-c2nnc(Nc3ccc4c(c3)OCCO4)o2)c1"
  log10 of IC50: 2.48
- Test smiles: "FC(F)(F)c1cccc(-c2nnc(-c3cccnc3NCc3ccncc3)[nH]2)c1"
  log10 of IC50: 3.04
- Test smiles: "c1ccc(-c2nnc(Nc3ccc4c(c3)OCCO4)o2)c(NCc2ccncc2)c1"
  log10 of IC50: 2.32
- Test smiles: "c1cnc(NCc2ccncc2)c(-c2nnc(Nc3ccc4c(c3)OCO4)o2)c1"
  log10 of IC50: 3.28
- Test smiles: "c1ccc(-c2nnc(Nc3ccc4c(c3)OCCO4)[nH]2)c(NCc2ccc3[nH]ncc3c2)c1"
  log10 of IC50: 3.49

// log10 of IC50 lookup, key: c1ccc(-c2nnc(Nc3ccc4c(c3)OCO4)o2)c(NCc2ccncc2)c1
2.92

For the compound shown here, c1ccc(-c2nnc(Nc3ccc4c(c3)OCCO4)[nH]2)c(NCc2ccncc2)c1 , give the reported log10 of IC50.
3.71

Could you share which log10 of IC50 value was measured for c1cnc(NCc2ccncc2)c(-c2nnc(Nc3ccc4c(c3)OCCO4)o2)c1 ?
2.23

----------
target: Vascular endothelial growth factor receptor 2 (Homo sapiens, UniProt P35968); assay: Inhibition of VEGFR-2 kinase assessed as phosphorylated level of pGAT-biotin peptide preincubated for 5 to 10 mins before addition of substrate measured after 2 hrs by HTRF assay
Parameter measured: IC50 (µM)
State just the number; it will be interpreted in µM.

- Test smiles: "FC(F)(F)c1cccc(-c2nnc(-c3cccnc3NCc3ccncc3)o2)c1"
  IC50, µM: 2.5

I'd like to know its IC50. The compound in question is c1cnc(NCc2cnc[nH]2)c(-c2nnc(Nc3ccc4c(c3)OCCO4)o2)c1
0.16

----------
molecular target: Vascular endothelial growth factor receptor 2 (Homo sapiens); experiment: Inhibition of VEGFR-2 kinase assessed as phosphorylated level of pGAT-biotin peptide preincubated for 5 to 10 mins before addition of substrate measured after 2 hrs by HTRF assay
pIC50: −log10 of the molar value.
Parameter measured: pIC50

Answered examples (2):
- Test smiles: "c1ccc(CNc2ncccc2-c2nnc(Nc3ccc4c(c3)OCCO4)o2)nc1"
  pIC50: "< 5.00"
- Test smiles: "c1cnc(NCCc2ccncc2)c(-c2nnc(Nc3ccc4c(c3)OCO4)o2)c1"
  pIC50: "< 5.00"

Tell me the measured pIC50 of c1cnc(NCc2ccc3c(c2)OCO3)c(-c2nnc(Nc3ccc4c(c3)OCO4)o2)c1 , please.
< 5.00

----------
# maps each entry to its IC50
molecular target: Vascular endothelial growth factor receptor 2 (Homo sapiens); experiment: Inhibition of VEGFR-2 kinase assessed as phosphorylated level of pGAT-biotin peptide preincubated for 5 to 10 mins before addition of substrate measured after 2 hrs by HTRF assay

Consider the worked cases shown below.
- Test smiles: "c1cncc(CCNc2ncccc2-c2nnc(Nc3ccc4c(c3)OCCO4)o2)c1"
  Subject of test: "Vascular endothelial growth factor receptor 2 (Homo sapiens)"
  IC50: "> 10 µM"
- Test smiles: "c1cncc(CNc2ncccc2-c2nnc(Nc3ccc4c(c3)OCCO4)o2)c1"
  Subject of test: "Vascular endothelial growth factor receptor 2 (Homo sapiens)"
  IC50: "> 10 µM"

Could you now look at the following molecule, please?
Quick check: IC50 of c1ccc(CNc2ncccc2-c2nnc(Nc3ccc4c(c3)OCO4)o2)nc1 ?
> 10 µM
